# assay target: HLA-A*11:01
# test: IEDB peptide-MHC binding, purified MHC/direct/fluorescence; filed as Kd, often an IC50 or EC50 that approximates it; bounds were set here for any values at or beyond the usual limits of such assays
# measurement conditions: source organism: Camelpox virus M-96
pKd: −log10 of the molar value.
measurement label: pKd

> print(dat)
   biosequence  experimental.result
1    IFLIITKVF               ≤ 4.70

----------
# assay target: HLA-B*57:01
# test: IEDB peptide-MHC binding, purified MHC/competitive/fluorescence; filed as Kd, often an IC50 or EC50 that approximates it; bounds were set here for any values at or beyond the usual limits of such assays
# measurement conditions: source organism: Hantavirus HPR/02-73
measurement label: Kd

> print(dat)
   biosequence  measurement.label  experimental.result
1    GFAIPIILK                 Kd              ≥ 20 µM
